Exercise: for every item that follows, state its recorded melting point.
Use °C as the unit, but write only the number.

Query :: Consider the molecule CC(S)C(=O)NCCCN(C)C (stereo not shown) . State its measured melting point.
Result :: 84

Query :: Consider the molecule CCN(CCO)C(=O)C(C)S (stereo not shown) . State its measured melting point.
Result :: 95

Query :: Consider the molecule CCN(CC)CCNC(=O)C(C)S (stereo not shown) . State its measured melting point.
Result :: 74

Query :: Consider the molecule CCCN(CCO)C(=O)C(C)S (stereo not shown) . State its measured melting point.
Result :: 80
